Target: T1, human glycophorin A on human red blood cells or red blood cell membranes (human, UniProt P02724 20-150)
T1 construct: whole, on cells; also called hRBC; human RBC membranes
T1 sequence (looked up): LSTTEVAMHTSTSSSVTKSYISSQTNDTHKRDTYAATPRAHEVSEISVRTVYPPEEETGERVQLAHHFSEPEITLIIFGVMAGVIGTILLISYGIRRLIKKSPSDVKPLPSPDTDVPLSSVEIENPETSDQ
Assay: SPR (Biacore), Fab on human RBC membranes;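 note: human RBC membranes captured on an L1 sensor chip, Fab fragments passed over as analyte, binding kinetics read by surface plasmon resonance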
result_type: koff (s⁻¹)
Number only, in s⁻¹; omit the unit.

>  <binder>
TPP-7789, affinity matured 6C12 Fab (Fab, V domains shown, Tested as Fab) VH: EVQLVQSGAEVKKPGASVKVSCKASGYTFTTYTIHWVRQAPGQGLEWMGYINPSSGYTRYNPKFKHRVTMTRDKSTSTAYMELRSLRSDDTAVYYCWTGTRDYWGQGTTVTVSS VL: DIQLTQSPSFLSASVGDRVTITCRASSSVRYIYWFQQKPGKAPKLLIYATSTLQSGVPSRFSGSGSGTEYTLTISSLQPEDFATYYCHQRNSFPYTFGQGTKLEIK

>  <koff, s⁻¹>
0.000128

$$$$
>  <binder>
TPP-7782, affinity matured 6C12 Fab (Fab, V domains shown, Tested as Fab) VH: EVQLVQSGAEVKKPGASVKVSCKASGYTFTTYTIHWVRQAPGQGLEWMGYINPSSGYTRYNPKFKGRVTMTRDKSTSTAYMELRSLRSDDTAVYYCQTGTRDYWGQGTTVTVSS VL: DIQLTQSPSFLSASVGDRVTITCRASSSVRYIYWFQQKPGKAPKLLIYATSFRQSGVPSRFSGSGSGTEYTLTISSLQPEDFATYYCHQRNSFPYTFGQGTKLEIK

>  <koff, s⁻¹>
0.000413

$$$$

Could you now consider this next binder?
Enquiry: Could you tell me which koff is on file for TPP-7778, affinity matured 6C12 Fab (Fab, V domains shown, Tested as Fab) VH: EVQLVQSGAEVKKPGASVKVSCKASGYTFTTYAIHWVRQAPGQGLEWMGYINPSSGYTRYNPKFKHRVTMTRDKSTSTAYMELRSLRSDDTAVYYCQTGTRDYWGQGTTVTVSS VL: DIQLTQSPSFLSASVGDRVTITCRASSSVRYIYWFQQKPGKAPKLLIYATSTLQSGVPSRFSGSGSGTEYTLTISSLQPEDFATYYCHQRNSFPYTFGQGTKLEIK ?
Return: 0.0011
